measuredTarget: T1, Source 2 VEGF-D, purified recombinant human VEGF-D monomer (R&D Systems, Catalog Number 622-VD/CF) (human, UniProt O43915 93-201)
T1 sequence: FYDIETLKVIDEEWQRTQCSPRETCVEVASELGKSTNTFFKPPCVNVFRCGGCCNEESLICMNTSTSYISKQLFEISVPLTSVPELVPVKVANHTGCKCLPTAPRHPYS
assay: cell-based or functional assay

binder	rank in the VEGFR-3-Ba/F3 bioassay / rank
humanized IgG antibody derived from clone AW61 (antibody, V domains shown, IgG) VH: QVQLVQSGAEVKQPGASVKVSCKASGYTFTGYNMYWVRQAPGQGLEWMGYIDPYNGDTTYNQKFKGRATMTTDTSTSTAYMKLRSLRSDDTAVYYCARTSYYGGMDYWGRGTLVTVAS VL: DIVMTQTPLSSPVTLGQPASISCRSSQSLVHSNGNTYLHWLQQRPGQPPRLLIYKVSNRFSGVPDRFSGSGAGTDFTLKISRVEAEDVGVYYCSQSTHVPRTFGQGTKLEIKR	4
humanized IgG antibody derived from clone HH41 (antibody, V domains shown, IgG; also called HH41#1; HH41#2) VH: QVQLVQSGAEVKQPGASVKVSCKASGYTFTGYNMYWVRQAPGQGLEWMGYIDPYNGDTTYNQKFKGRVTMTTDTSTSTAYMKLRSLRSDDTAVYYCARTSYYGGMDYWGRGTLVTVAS VL: DIVMTQTPLSSPVTLGQPASISCRSSQSLVHGNGNTYLHWLQQRPGQPPRLLIYKVSNRFSGVPDRFSGSGAGTDFTLKISRVEAEDVGVYYCSQSTHVPRTFGQGTKLEIKR	6
